# target or system: F508del in NIH 3T3 cells (Homo sapiens, UniProt P13569, DEL508-508)
# Construct: expressed in transfected cells
# Sequence (P13569 with tags, fused parts or gaps DEL508-508): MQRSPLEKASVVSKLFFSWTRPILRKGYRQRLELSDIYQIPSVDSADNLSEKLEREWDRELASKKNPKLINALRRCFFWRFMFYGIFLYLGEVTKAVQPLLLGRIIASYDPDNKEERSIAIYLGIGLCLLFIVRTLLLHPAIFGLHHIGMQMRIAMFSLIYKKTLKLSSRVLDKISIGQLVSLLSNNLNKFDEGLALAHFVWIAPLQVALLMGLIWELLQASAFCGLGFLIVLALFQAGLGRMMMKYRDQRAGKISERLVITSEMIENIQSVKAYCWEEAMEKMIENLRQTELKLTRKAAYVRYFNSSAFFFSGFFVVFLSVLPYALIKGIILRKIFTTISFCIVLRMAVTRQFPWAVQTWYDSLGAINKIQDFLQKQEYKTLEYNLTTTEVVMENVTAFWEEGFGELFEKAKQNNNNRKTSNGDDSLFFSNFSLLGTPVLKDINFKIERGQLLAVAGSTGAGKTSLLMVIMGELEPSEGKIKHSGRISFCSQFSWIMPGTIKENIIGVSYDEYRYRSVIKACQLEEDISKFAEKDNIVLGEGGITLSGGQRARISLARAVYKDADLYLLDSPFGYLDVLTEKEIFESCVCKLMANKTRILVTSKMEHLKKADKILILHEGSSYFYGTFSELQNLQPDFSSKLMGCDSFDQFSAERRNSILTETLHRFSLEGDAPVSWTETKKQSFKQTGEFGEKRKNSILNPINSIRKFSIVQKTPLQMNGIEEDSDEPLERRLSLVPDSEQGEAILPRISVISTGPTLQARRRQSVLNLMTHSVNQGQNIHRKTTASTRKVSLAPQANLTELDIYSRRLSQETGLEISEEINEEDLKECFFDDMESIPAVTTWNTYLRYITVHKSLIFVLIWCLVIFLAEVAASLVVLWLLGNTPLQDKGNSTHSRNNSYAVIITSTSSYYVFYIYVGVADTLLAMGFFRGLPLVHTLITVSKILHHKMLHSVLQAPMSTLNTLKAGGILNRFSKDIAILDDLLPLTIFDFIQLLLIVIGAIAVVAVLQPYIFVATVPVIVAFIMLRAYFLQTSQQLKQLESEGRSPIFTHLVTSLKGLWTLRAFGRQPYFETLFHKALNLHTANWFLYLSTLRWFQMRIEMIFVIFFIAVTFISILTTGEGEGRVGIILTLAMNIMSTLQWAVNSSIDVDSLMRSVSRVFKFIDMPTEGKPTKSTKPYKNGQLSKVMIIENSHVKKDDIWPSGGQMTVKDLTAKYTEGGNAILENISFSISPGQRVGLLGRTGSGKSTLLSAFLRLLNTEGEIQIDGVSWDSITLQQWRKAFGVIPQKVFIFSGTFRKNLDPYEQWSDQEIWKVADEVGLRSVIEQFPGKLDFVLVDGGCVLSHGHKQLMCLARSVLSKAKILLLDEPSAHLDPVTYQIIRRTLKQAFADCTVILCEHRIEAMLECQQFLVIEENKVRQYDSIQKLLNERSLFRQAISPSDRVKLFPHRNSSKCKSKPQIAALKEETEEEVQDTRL
# protocol notes: 3T3 assay: membrane potential optical assay for F508del correction
# Assay type: cell-based, mouse
# stated conditions: F508del NIH 3T3 cells, compound incubation 18-24 hours at 37° C., forskolin activation; read-out: 3T3 EC50
pEC50: −log10 of the molar value.

molecule: CC(C)c1ccccc1-c1cc2nc(n1)NS(=O)(=O)c1cccc(c1)NC(=O)c1cccc(c1)O2
pEC50: > 6.00
--
molecule: Cc1cccc(C)c1-c1cc2nc(n1)NS(=O)(=O)c1cccc(c1)NC(=O)[C@H]1C[C@@H](CN(C(=O)OC(C)(C)C)C1)O2 (single isomer, unassigned)
pEC50: > 6.00
--
molecule: Cc1cccc(C)c1-c1cc2cc(n1)NS(=O)(=O)c1cccc(c1)NC(=O)c1cccc(c1)O2
pEC50: > 6.00
--
molecule: Cc1cccc(C)c1-c1cc2nc(n1)NS(=O)(=O)c1cccc(c1)NC(=O)c1cccc(c1C)O2 (single isomer, unassigned) [Compound 61]
pEC50: > 6.00
--
molecule: Cc1cccc(C)c1-c1cc2nc(n1)NS(=O)(=O)c1cccc(c1)NC(=O)[C@H]1CCC[C@H](C1)O2 (single isomer, unassigned) [Compound 71]
pEC50: 5.52 to 6.00
--
molecule: Cc1cccc(C)c1-c1cc2nc(n1)NS(=O)(=O)c1cccc(c1)NC(=O)c1cccc(c1)CCO2
pEC50: 5.52 to 6.00

====

# target or system: CFTR-mediated chloride transport in human intestinal epithelial enteroid cells (Homo sapiens, UniProt P13569)
# Sequence (P13569 with tags, fused parts or gaps DEL508-508): as above
# protocol notes: Membrane potential dye, Enteroid Assay A
# Type: cell-based
# stated conditions: enteroid cells, 18-24 hours incubation, acute 10 μM forskolin and 300 nM ivacaftor; read-out: Ent. A EC50
// reported EC50 per item

compound: Cc1cccc(C)c1-c1cc2nc(n1)NS(=O)(=O)c1cccc(c1)NC(=O)[C@@H]1C[C@H](CN(C(=O)OC(C)(C)C)C1)O2 (single isomer, unassigned)
EC50: 1000 to 3000 nM

compound: Cc1cccc(C)c1-c1cc2nc(n1)NS(=O)(=O)c1cccc(c1)NC(=O)c1cccc(c1)O2
EC50: 3000 to 30000 nM

compound: Cc1cccc(C)c1-c1cc2nc(n1)NS(=O)(=O)c1cccc(c1)NC(=O)c1ccc(Cl)c(c1)O2
EC50: 1000 to 3000 nM

compound: CCCCCCN1C[C@@H]2C[C@H](C1)C(=O)Nc1cccc(c1)S(=O)(=O)Nc1nc(cc(-c3c(C)cccc3C)n1)O2
EC50: < 1000 nM

compound: Cc1cccc(C)c1-c1cc2nc(n1)NS(=O)(=O)c1cccc(c1)NC(=O)[C@@H]1C[C@@H](CN(CCCCC(C)(C)C)C1)O2
EC50: < 1000 nM

compound: Cc1cccc(C)c1-c1cc2nc(n1)NS(=O)(=O)c1cccc(c1)NC(=O)c1cc(ccc1Cl)O2
EC50: 1000 to 3000 nM

====

# target or system: CFTR-mediated chloride transport in human intestinal epithelial enteroid cells (Homo sapiens, UniProt P13569)
# protocol notes: Membrane potential dye, Enteroid Assay A
# Assay type: cell-based
# stated conditions: enteroid cells, 18-24 hours incubation, acute 10 μM forskolin and 300 nM ivacaftor; read-out: Ent. A EC50
pEC50: −log10 of the molar value.
quantity kind: pEC50

molecule: Cc1cccc(C)c1-c1cc2nc(n1)NS(=O)(=O)c1cccc(c1)NC(=O)[C@@H]1C[C@@H](CN(C(=O)C(C)(C)C)C1)O2
quantity kind: pEC50
test result: 5.52 to 6.00
--
molecule: Cc1cccc(C)c1-c1cc2nc(n1)NS(=O)(=O)c1cccc(c1)NC(=O)[C@@H]1C[C@@H](CN(C(=O)OCC(C)(C)C)C1)O2
quantity kind: pEC50
test result: > 6.00
--
molecule: Cc1cccc(C)c1-c1cc2nc(n1)NS(=O)(=O)c1cccc(c1)NC(=O)[C@H]1CCC[C@H](C1)O2 (single isomer, unassigned) [Compound 69]
quantity kind: pEC50
test result: 5.52 to 6.00
--
molecule: Cc1cccc(C)c1-c1cc2nc(n1)NS(=O)(=O)c1cccc(c1)NC(=O)C1CC(O2)C(C)(C)N(Cc2ccccc2)C1 (single isomer, unassigned)
quantity kind: pEC50
test result: > 6.00
--
molecule: CCCCCOC(=O)N1C[C@@H]2C[C@H](C1)C(=O)Nc1cccc(c1)S(=O)(=O)Nc1nc(cc(-c3c(C)cccc3C)n1)O2
quantity kind: pEC50
test result: > 6.00
--
molecule: Cc1cccc(C)c1-c1cc2nc(n1)NS(=O)(=O)c1cccc(c1)NC(=O)[C@@H]1C[C@@H](CN(CC3C4(CC4)C34CC4)C1)O2
quantity kind: pEC50
test result: > 6.00
--
molecule: Cc1cccc(C)c1-c1cc2nc(n1)NS(=O)(=O)c1cccc(c1)NC(=O)[C@@H]1C[C@H](O2)C(=O)N(CCC(C)(C)C)C1 [Compound 88]
quantity kind: pEC50
test result: 4.52 to 5.52
--
molecule: Cc1cccc(C)c1-c1cc2nc(n1)NS(=O)(=O)c1cccc(c1)NC(=O)[C@@H]1C[C@@H](CN(Cc3ccccc3)C1)O2
quantity kind: pEC50
test result: > 6.00
--
molecule: Cc1cccc(C)c1-c1cc2nc(n1)NS(=O)(=O)c1cccc(c1)NC(=O)[C@@H]1C[C@@H](CN(C(=O)C3C(C)(C)C3(C)C)C1)O2
quantity kind: pEC50
test result: > 6.00
--
molecule: COCCN1C[C@@H]2C[C@H](C1)C(=O)Nc1cccc(c1)S(=O)(=O)Nc1nc(cc(-c3c(C)cccc3C)n1)O2
quantity kind: pEC50
test result: 5.52 to 6.00
--
molecule: Cc1cccc(C)c1-c1cc2nc(n1)NS(=O)(=O)c1cccc(c1)NC(=O)[C@@H]1C[C@@H](CN(C(=O)OCCF)C1)O2
quantity kind: pEC50
test result: 5.52 to 6.00
--
molecule: Cc1cccc(C)c1-c1cc2nc(n1)NS(=O)(=O)c1cccc(c1)NC(=O)C1CC(CN(C(=O)OC(C)(C)C)C1)O2 (stereo not drawn) [Compound 124]
quantity kind: pEC50
test result: 4.52 to 5.52
--
molecule: Cc1cccc(C)c1-c1cc2nc(n1)NS(=O)(=O)c1cccc(c1)NC(=O)[C@H]1CCC[C@H](C1)O2 (single isomer, unassigned) [Compound 71]
quantity kind: pEC50
test result: 5.52 to 6.00
--
molecule: Cc1cccc(C)c1-c1cc2nc(n1)NS(=O)(=O)c1cccc(c1)NC(=O)[C@@H]1C[C@@H](CN(CC3CC3)C1)O2
quantity kind: pEC50
test result: 5.52 to 6.00
--
molecule: Cc1cccc(C)c1-c1cc2nc(n1)NS(=O)(=O)c1cccc(c1)NC(=O)c1cc(Cl)cc(c1)O2
quantity kind: pEC50
test result: 5.52 to 6.00
